Tested on: LCLC-97TM1
ASSAY COMMENT: relative viability (nuclei count vs DMSO), 5 days (fraction); higher = more cells survive
ASSAY SETUP: first compound 2 µM
# relative viability values compiled below

| COMPOUND | relative viability |
| --- | --- |
| CN1CCN(CCOc2cc(OC3CCOCC3)c3c(Nc4c(Cl)ccc5c4OCO5)ncnc3c2)CC1 [Saracatinib] + CC(C)C[C@H](NC(=O)[C@H](Cc1ccccc1)NC(=O)c1cnccn1)B(O)O [Bortezomib] (partner 0.002 µM) | 0.523 |
| CN1CCN(CCOc2cc(OC3CCOCC3)c3c(Nc4c(Cl)ccc5c4OCO5)ncnc3c2)CC1 [Saracatinib] + Nc1nc2[nH]cc(CCc3ccc(C(=O)N[C@@H](CCC(=O)O)C(=O)O)cc3)c2c(=O)[nH]1 [Pemetrexed] (partner 0.2 µM) | 0.136 |
| CN1CCN(CCOc2cc(OC3CCOCC3)c3c(Nc4c(Cl)ccc5c4OCO5)ncnc3c2)CC1 [Saracatinib] + CC1(C)CCC(c2ccc(Cl)cc2)=C(CN2CCN(c3ccc(C(=O)NS(=O)(=O)c4ccc(N[C@H](CCN5CCOCC5)CSc5ccccc5)c(S(=O)(=O)C(F)(F)F)c4)cc3)CC2)C1 [Navitoclax] (partner 0.5 µM) | 0.46 |
| Cc1csc(=NC2CCCCC2)n1/N=C/c1ccc(O)c(O)c1O [MIM1] + CS(=O)(=O)CCNCc1ccc(-c2ccc3ncnc(Nc4ccc(OCc5cccc(F)c5)c(Cl)c4)c3c2)o1 [Lapatinib] (partner 2 µM) | 0.539 |
| CN1CCN(CCOc2cc(OC3CCOCC3)c3c(Nc4c(Cl)ccc5c4OCO5)ncnc3c2)CC1 [Saracatinib] + Nc1ncn([C@H]2C[C@H](O)[C@@H](CO)O2)c(=O)n1 [Decitabine] (partner 2 µM) | 0.178 |
| Cc1csc(=NC2CCCCC2)n1/N=C/c1ccc(O)c(O)c1O [MIM1] + N=C(N)NC(=N)NCCc1ccccc1 [Phenformin] (partner 250 µM) | 0.413 |
| Cc1csc(=NC2CCCCC2)n1/N=C/c1ccc(O)c(O)c1O [MIM1] + O=C(CCCCCCC(=O)Nc1ccccc1)NO [Vorinostat] (partner 1 µM) | 0.719 |
| Cc1csc(=NC2CCCCC2)n1/N=C/c1ccc(O)c(O)c1O [MIM1] + NC(=O)Nc1cc(-c2cccc(F)c2)sc1C(=O)N[C@H]1CCCNC1 [AZD7762] (partner 0.2 µM) | 0.196 |
| CN1CCN(CCOc2cc(OC3CCOCC3)c3c(Nc4c(Cl)ccc5c4OCO5)ncnc3c2)CC1 [Saracatinib] + Cc1cc(Nc2cc(N3CCN(C)CC3)nc(Sc3ccc(NC(=O)C4CC4)cc3)n2)n[nH]1 [Tozasertib] (partner 0.1 µM) | 0.185 |

Origin of values: the supplement of paper PMC10307832
